Test system: Plasmodium falciparum
Test: GSK_TCMDC: Inhibition of Plasmodium falciparum 3D7 in whole erythrocytes, using parasite LDH activity as an index of growth.
Format: functional, organism-based
Details: Plasmodium falciparum, 3D7
Catalogue of log10(XC50) readings, one per entry.
# log10 transformed; quantity=XC50; unit=nM

- Cc1ccc(-c2nc3ccccc3o2)cc1NCc1cc(Cc2ccccc2)ccc1O: 3.01
- CCCc1ccc(N2C(N)=NC(N)=NC2(C)C)cc1: 1.45
- Fc1ccc2[nH]c(-c3ccc(-c4cccc(CN5CCN(c6ccncc6)CC5)c4)cc3)nc2c1: 1.93
- O=c1sn(-c2csc3ccccc23)c2ccccc12: 2.53
- O=S(=O)(NCCN1CCCC1)c1ccc(-c2cccc(CNCc3ccsc3)c2)s1: 2.95

In the following, a different molecule is considered.
Query: Fill in the recorded log10(XC50) for this molecule, with Plasmodium falciparum as test system: O=S(=O)(Nc1cccc(CCN2CCCCC2CCN2CCCC2)c1)c1ccc(Oc2ccccc2)cc1 (stereo unspecified)
Response: 3.02

---

Catalogue of XC50 readings, one per entry.
Tested on: Plasmodium falciparum
Experiment: GSK_TCMDC: Inhibition of Plasmodium falciparum 3D7 in whole erythrocytes, using parasite LDH activity as an index of growth.
Type: functional, organism-based
Details: Plasmodium falciparum, 3D7
Please state the figure in nM; there is no need to write the unit.

Query: Fill in the recorded XC50 for this molecule, with Plasmodium falciparum as test system: CC(C)(C)c1ccc(CNC(=O)c2ccc(-c3nc4cc(C(C)(C)C)ccc4[nH]3)cc2)cc1
Response: 840

---

System: Plasmodium falciparum
Assay: GSK_TCMDC: Inhibition of Plasmodium falciparum 3D7 in whole erythrocytes, using parasite LDH activity as an index of growth.
Assay type: functional, organism-based
Conditions: Plasmodium falciparum, 3D7
Labelling: XC50 reported below 0.6 µM becomes Met; at or above becomes Not met.

* Cc1ccc(CN2CCN(c3cc4c(cc3Cl)CCN4C(=O)Cc3ccc(Cl)c(NC(=O)Nc4cccc(C#N)c4)c3)CC2)cc1 | Not met
* CC(C)(CNC(=O)C1CCN(CCOCc2ccccc2)CC1)c1nc(-c2ccc(Cl)c(O)c2)c(-c2ccncc2)[nH]1 | Not met
* Cc1sc2ccc(Cl)cc2c1S(=O)(=O)Nc1ccc2nccc(N3CC(C)NC(C)C3)c2c1 (configuration not stated) | Met
* N#Cc1cnc(Nc2ccc(Oc3ccccc3)cc2)nc1Nc1cccc(S(N)(=O)=O)c1 | Met
* CCN1C(=O)N(CCC(C)C)C2(CCN(Cc3ccc(OC)cc3O)CC2)C1=O | Not met

Query: Does c1ccc(CCNCc2ccc(-c3ccc(CNCc4ccc5c(c4)OCO5)cc3)nc2)cc1 have XC50 strictly under 0.6 µM?
Response: Not met

Query: Does COc1cccc2c(N/N=C/c3cccc([N+](=O)[O-])c3)ccnc12 have XC50 strictly under 0.6 µM?
Response: Not met

Query: Does CCNc1cc(C(=O)N[C@@H](Cc2ccccc2)[C@H](O)CNC2CCCCC2)cc(N2CCCCS2(=O)=O)c1 have XC50 strictly under 0.6 µM?
Response: Met

Query: Does Clc1ccc(Nc2nc3ccc(Cl)cc3nc2Nc2ccc(Cl)cc2)cc1 have XC50 strictly under 0.6 µM?
Response: Met

Query: Does CC(C)(C)c1ccc(CNC(=O)c2cc(CNC3CCNCC3)ccc2O)cc1 have XC50 strictly under 0.6 µM?
Response: Not met

Query: Does CC(C)C[C@H](NC(=O)[C@H](Cc1ccccc1)NC(=O)CCN1C(=O)COc2ccc(C(=O)O)cc21)C(=O)NC(CC1CCCCC1)C(O)CC(=O)NCCCn1ccnc1 (some centres not stated) have XC50 strictly under 0.6 µM?
Response: Not met

Query: Does O=C(C=Cc1ccc(Cl)c(Cl)c1)NCCCCCN1CCC(CCNC(=O)c2cccc3ccccc23)CC1 have XC50 strictly under 0.6 µM?
Response: Not met

Query: Does O=C(/C=C/c1ccc(Cl)c(Cl)c1)NCCCCCN1CCCC(CNC(=O)Nc2ccc(Oc3ccccc3)cc2)C1 (configuration not stated) have XC50 strictly under 0.6 µM?
Response: Not met

---

Test system: Plasmodium falciparum
Test: GSK_TCMDC: Inhibition of Plasmodium falciparum 3D7 in whole erythrocytes, using parasite LDH activity as an index of growth.
Type: functional, organism-based
Details: Plasmodium falciparum, 3D7
Measure name: XC50 (nM)
Please state the figure in nM; there is no need to write the unit.

Illustrative cases are given below, each with its answer.
- COc1ccc(OCCON)cc1: 201
- COc1cccc(-c2ccc3c(-c4cccc(S(C)(=O)=O)c4)cnc(N)c3c2)c1: 874
- N#Cc1c(-c2ccccc2)cn2c1[nH]c(=O)c1ccccc12: 109
- Cc1cc(N2CCC(N(C)C)C2)nc(Nc2ccc(Cl)cc2)n1 (stereo not given): 517
- Cc1ccc(Nc2nccc(NCC(O)c3ccc(C(F)(F)F)cc3)n2)cc1 (stereo not given): 491

Query: Name the reported XC50 value associated with the molecule O=C(Nc1ccc(OC2CCN(Cc3ccco3)C2)c(Cl)c1)c1ccc2ncccc2c1 (stereo not given)
Response: 1080

Query: Name the reported XC50 value associated with the molecule CC(C)CC(=O)NC1CCN(Cc2c(-c3cccs3)nc3ccccc3c2C(=O)N[C@@H](C)C2CCCCC2)CC1
Response: 819

Query: Name the reported XC50 value associated with the molecule CCCCNC[C@@H](O)[C@H](Cc1ccccc1)NC(=O)c1cc(NCC)cc(N2CCCCS2(=O)=O)c1
Response: 398

Query: Name the reported XC50 value associated with the molecule O=C(NCCN1CCCCC1)c1ccc(CNC(=O)c2ccc(O)c(-c3cccc(C(F)(F)F)c3)c2)cc1
Response: 886

Query: Name the reported XC50 value associated with the molecule COc1ccccc1-n1ccnc1SCC(=O)Nc1cccc(C(F)(F)F)c1
Response: 160

---

Tested on: Plasmodium falciparum
Test: GSK_TCMDC: Inhibition of Plasmodium falciparum 3D7 in whole erythrocytes, using parasite LDH activity as an index of growth.
Type: functional, organism-based
Details: Plasmodium falciparum, 3D7
Measure name: XC50 (nM)
Please state the figure in nM; there is no need to write the unit.

Illustrative cases are given below, each with its answer.
• CC(C)CN(C)c1ncnc2c1nc(-c1cncc(C#N)c1)n2CCNCc1ccccc1 = 1360
• Cc1cccc2nc(-c3ccc(-c4ccc(NC(=O)Nc5ccc(Cl)cc5)cc4)s3)[nH]c12 = 152
• CCc1ccc(CN(Cc2ccc(C)cc2)Cc2ccc(NC(C)=O)cc2)cc1 = 962
• CN(C)c1ccc(CN2CCCCC(NC(=O)c3cc(-c4ccccc4F)cs3)C2)cc1 (stereo not given) = 826

Query: Name the reported XC50 value associated with the compound CCOC(=O)c1ccc2[nH]c(-c3ccc(C(=O)NC4CCN(Cc5ccccc5)CC4)s3)nc2c1
Response: 745

---

System: Plasmodium falciparum
Experiment: GSK_TCMDC: Inhibition of Plasmodium falciparum 3D7 in whole erythrocytes, using parasite LDH activity as an index of growth.
Assay type: functional, organism-based
Conditions: Plasmodium falciparum, 3D7
Measure name: XC50
Reply with the number and its unit after it.

Illustrative cases are given below, each with its answer.
* O=C(Nc1ccc(Cl)c(Cl)c1)Nc1ccc2c(c1)CCNCC2 | 532 nM
* CCOCc1cn(CC(=O)c2ccc(-c3ccccc3)cc2)c(C)nc1=N | 319 nM
* Cc1nc(-c2cccc(Nc3nccc(NCC(O)c4cccc(C(F)(F)F)c4)n3)c2)cs1 (centres undefined) | 627 nM
* COc1ccc(N2CCN(CCCOc3ccc(NC(=O)c4cc(Cl)cc(Cl)c4)cc3)CC2)c(OC)c1 | 897 nM
* Cc1cc(=NN=CC=Cc2ccccc2)c2cc(F)ccc2[nH]1 | 734 nM
* CC(C)(C)N1CCC(N(Cc2ccc(-c3ccc(C(F)(F)F)cc3)cc2)C(=O)Cn2c(CCc3cccc(F)c3F)nc(=O)c3cccnc32)CC1 | 757 nM
* COc1cc(OC)cc(-c2nnc(Sc3ccc(C#N)c([N+](=O)[O-])c3)n2C)c1 | 937 nM
* CC(=O)Nc1ccc(C(=O)Nc2cccc(-c3ccc(-c4nc5cccc(C)c5[nH]4)cc3)c2)cn1 | 191 nM

In the following, a different molecule is considered.
Query: Name the reported XC50 value associated with the molecule COc1cc(Nc2nccc(N3CCC(NC(=O)C(C)c4ccc(Cl)cc4)C3)n2)cc(OC)c1OC (centres undefined)
Response: 757 nM

---

Catalogue of XC50 readings, one per entry.
Tested on: Plasmodium falciparum
Test: GSK_TCMDC: Inhibition of Plasmodium falciparum 3D7 in whole erythrocytes, using parasite LDH activity as an index of growth.
Format: functional, organism-based
Settings: Plasmodium falciparum, 3D7
Please state the figure in µM; there is no need to write the unit.

• COc1cccc(C2(C)CCN(CCCCNC(=O)c3ccc(NC(=O)c4ccc(Cl)cc4)cc3)CC2)c1 = 0.831

Query: Fill in the recorded XC50 for this compound, with Plasmodium falciparum as test system: Cc1ccc(S(=O)(=O)N2CCCN(C(=O)c3cc(-c4ccccc4)[nH]n3)CC2)cc1
Response: 0.0843

Query: Fill in the recorded XC50 for this compound, with Plasmodium falciparum as test system: Cc1ccc2ccncc2c1N
Response: 0.697

Query: Fill in the recorded XC50 for this compound, with Plasmodium falciparum as test system: O=C(Nc1ccc(Br)c(Cl)c1)c1cc([N+](=O)[O-])cc2cn[nH]c12
Response: 1.06

Query: Fill in the recorded XC50 for this compound, with Plasmodium falciparum as test system: O=C(NCc1ccccc1F)c1ccc(N2CCC(NCc3cccc(-n4cccn4)c3)CC2)cc1
Response: 1.73

Query: Fill in the recorded XC50 for this compound, with Plasmodium falciparum as test system: CNC(=O)Cc1ccc(C(=O)Nc2cccc(-c3cccc(-c4nc5cccc(C)c5[nH]4)c3)c2)cc1
Response: 0.53

Query: Fill in the recorded XC50 for this compound, with Plasmodium falciparum as test system: Oc1ccc(CCNc2nc(NCCOc3cccc4ccccc34)nc(N3CCNCC3)n2)cc1
Response: 0.901

Query: Fill in the recorded XC50 for this compound, with Plasmodium falciparum as test system: CCC1CN2CCc3c([nH]c4ccccc34)C2CC1CC1NCCc2cc(OC)c(OC)cc21 (stereo not given)
Response: 0.836

Query: Fill in the recorded XC50 for this compound, with Plasmodium falciparum as test system: COc1nc(NCC(C)C)nc(Oc2ccc(=O)n(Cc3ccccc3)n2)n1
Response: 0.631

Query: Fill in the recorded XC50 for this compound, with Plasmodium falciparum as test system: CN(C)c1nc(NCc2ccccc2)nc(N/N=C/c2cc([N+](=O)[O-])ccc2O)n1
Response: 0.685
